tested on: FXR:RXRa (NR concentration 270 nM, RXRa partner concentration 90 nM); assay: PBM binding z-score (relative to random genomic background probes); higher = stronger binding; sequences stand for … in GC…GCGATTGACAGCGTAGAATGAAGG
parameter-measured: PBM binding z-score
// response body must contain only the number

# annotated cases, reported PBM binding z-score shown
seq-text	PBM binding z-score
TCTCGGAGGACACGAGGGTCAGAGCTTTCCAGAG	0.856
GCATATAGGTAGTACAAGGTGAAAGTCCGATTGT	1.03
GCGACTGGGGCATCAGCAGATTACCATAACTTAA	-0.359
CCTACTAGGCCAAAAAGGTCATTGATGCCGATAA	3.79
CTCGAAAGCTCGGTTGAGGTGAGTATACGGATAA	-0.222

**Query** Endpoint output: PBM binding z-score of `TCTGCTAGGTCAACCATGGTCAGCTAATCTGCTA` . Value?
**Result** 4.32

**Query** Then this sequence: `CCTACTGGGCCATCAGGTAATTGATATCAACGTT`
**Result** -0.165
